Would you mind telling me the reported protein stability index of each entry?
B1: RBBP5 (parent)
chain: TGTSNTTAIKSIEFARKGSCFLIN

variants of: B1; assay: protein stability index of a GFP-peptide fusion (GPS, HEK-293T) (PSI 1-6); higher = more stable; conditions: c terminus: a fixed tail appended;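 further: lentivirally expressed fusions sorted by FACS into six bins by GFP to DsRed ratio, PSI derived from sequencing read proportions per bin multiplied by bin number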
Write the number on its own, no unit after it.

Q: Which protein stability index is listed for TGTSNTTCIKSIEFARKGSCFLIN [A8C] ?
Ans: 2.71

Q: Which protein stability index is listed for TGTSNTTAIKSIEFARKGSCFLIQ [N24Q] ?
Ans: 1.79

Q: Which protein stability index is listed for TQTSNTTAIKSIEFARKGSCFLIN [G2Q] ?
Ans: 2.47

Q: Which protein stability index is listed for TGTSNNTAIKSIEFARKGSCFLIN [T6N] ?
Ans: 3.06

Q: Which protein stability index is listed for TGTSNTTAIKSIEFARKGSCFLIT [N24T] ?
Ans: 1.76

Q: Which protein stability index is listed for TGTSSTTAIKSIEFARKGSCFLIN [N5S] ?
Ans: 2.02

Q: Which protein stability index is listed for TGTSNTTAIKSIEFALKGSCFLIN [R16L] ?
Ans: 3.26
